# TARGET_OR_SYSTEM: T1, human ASGR-1 mutant construct H203 (human, UniProt P07306 1-291)
# T1 construct: Arg/Glu scanning: non-arginine residues were changed to arginine; Transiently expressed on CHO-S cells
# T1 sequence: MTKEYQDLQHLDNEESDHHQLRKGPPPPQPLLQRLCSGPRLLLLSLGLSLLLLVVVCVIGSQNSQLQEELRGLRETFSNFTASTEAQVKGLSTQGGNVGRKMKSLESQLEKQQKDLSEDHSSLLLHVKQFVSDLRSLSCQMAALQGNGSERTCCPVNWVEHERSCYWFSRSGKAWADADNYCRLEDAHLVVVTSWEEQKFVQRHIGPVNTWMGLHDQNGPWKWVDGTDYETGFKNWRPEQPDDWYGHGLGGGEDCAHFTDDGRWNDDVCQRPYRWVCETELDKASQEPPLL
# PROTOCOL_TEXT: FACS ratio: H203 normalized value / wt normalized value
# Normalization to wt ASGR1 Binding per entry

- BINDER: "184E7 (antibody, V domains shown, mAb) VH: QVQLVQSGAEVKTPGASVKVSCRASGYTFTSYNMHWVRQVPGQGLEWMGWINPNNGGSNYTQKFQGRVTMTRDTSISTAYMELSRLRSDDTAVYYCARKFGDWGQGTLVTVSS VL: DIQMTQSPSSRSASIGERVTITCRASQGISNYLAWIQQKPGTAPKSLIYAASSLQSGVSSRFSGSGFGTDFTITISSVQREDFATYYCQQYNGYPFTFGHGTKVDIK"
  Normalization to wt ASGR1 Binding: 1.07
- BINDER: "194C10 (antibody, V domains shown, mAb) VH: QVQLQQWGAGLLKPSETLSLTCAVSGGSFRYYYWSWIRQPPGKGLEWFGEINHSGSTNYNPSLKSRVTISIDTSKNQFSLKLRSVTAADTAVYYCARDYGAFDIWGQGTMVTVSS VL: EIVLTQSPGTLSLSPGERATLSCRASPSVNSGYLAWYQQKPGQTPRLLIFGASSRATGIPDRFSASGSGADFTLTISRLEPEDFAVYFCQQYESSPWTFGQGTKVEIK"
  Normalization to wt ASGR1 Binding: 0.978
